- Test system: pERK, HCT116 cells
- Assay overview: Phospho-ERK inhibition, AlphaLISA p-ERK 1/2, HCT-116
- Type: cell-based, human
- Protocol conditions: Table 3; lowest % inhibition value of the pERK IC50 curve; above −20% = no paradoxical induction
Listed here: items and their measured HCT116 pERK (Ymin %).
Reply with just the number (in %).

Would you please look over these solved cases?
compound=Cc1ncn(-c2nc3c(Nc4c(F)ccc(NS(=O)(=O)c5cccc(Cl)c5Cl)c4F)ncnc3s2)c1C target_or_system="pERK, HCT116 cells" unit_name=% reported_result=−7
compound=O=S(=O)(Nc1ccc(F)c(Nc2ncnc3sc(-n4cc(S(=O)(=O)C5CCCC5)c5ccccc54)nc23)c1F)c1cccc(Cl)c1Cl target_or_system="pERK, HCT116 cells" unit_name=% reported_result=−4
compound=CC(C)(O)[C@@H]1CCN(C(=O)c2cn(-c3nc4c(Nc5c(F)ccc(NS(=O)(=O)c6cccc(Cl)c6Cl)c5F)ncnc4s3)c3ccccc23)C1 target_or_system="pERK, HCT116 cells" unit_name=% reported_result=−6

In: Form field: reported HCT116 pERK (Ymin %) of "CN(CCN1CCOCC1)S(=O)(=O)c1cn(-c2nc3c(Nc4c(F)ccc(NS(=O)(=O)c5cccc(Cl)c5Cl)c4F)ncnc3s2)c2ccccc12"
Out: −10

In: Form field: reported HCT116 pERK (Ymin %) of "Cc1c(Cl)cccc1S(=O)(=O)Nc1ccc(F)c(Nc2ncnc3sc(-n4cnc5c(N)cccc54)nc23)c1F"
Out: −6

In: Form field: reported HCT116 pERK (Ymin %) of Cc1c(F)cccc1S(=O)(=O)Nc1ccc(F)c(Nc2ncnc3sc(-n4cc(C(=O)N5CCC(CO)C5)c5ccccc54)nc23)c1F (stereo not drawn)
Out: −7

Data provenance: patent US20260137697A1
